assay: recombinant UMI read abundance after kanamycin selection (control-corrected) (log10(CPM+1)); higher = more efficient recombination; extreme values may be limits of the assay; sequences stand for … in AGTGCAGAGAAAATCGGCCAGTTTTCTCTGCCTGCAGTCCGCATGCCGTGGGACCCCTTGGGTTCTAACCTGTTGCCTAGATTTATGCAGCGGACTGCCTTTCTCCCAAAGTGATAAACCGG…AGGTTGGTTTCACT; site = the 11-nt donor
REPORTED METRIC: recombinant UMI read abundance (log10)

INSERT INTO assay_data (macromolecule_sequence, reported_value) VALUES
  ('CGCATCACATGGACCGGTTTTCCCGGTAATCCGTATTTGCC (site CGCATCACTGG)', 1.78),
  ('AGATCGACATGGACCGGTTTTCCCGGTAATCCGTATTTGTT (site TGATCGACTAA)', 0.00951),
  ('CAATGCTCATGGACCGGTTTTCCCGGTAATCCGTATTTGAG (site CAATGCTCTTT)', 0.812),
  ('GACTGCACATGGACCGGTTTTCCCGGTAATCCGTATTTGGT (site GACTGCACTAC)', 0.857),
  ('TCATCTACATGGACCGGTTTTCCCGGTAATCCGTATTTGTG (site TCATCTACTCA)', 0.00873),
  ('CACCGTACATGGACCGGTTTTCCCGGTAATCCGTATTTGCT (site CCCCGTACTAG)', 0.363),
  ('ACATTATCATGGACCGGTTTTCCCGGTAATCCGTATTTGCA (site ACATTATCTTG)', 2.01),
  ('AGATGCGCATGGACCGGTTTTCCCGGTAATCCGTATTTGAG (site AGATGCGCTCT)', 1.86),
  ('CTGCTACCATGGACCGGTTTTCCCGGTAATCCGTATTTGAT (site CTGCTACCTAT)', 0.00649);

---

The sequences listed here are annotated with their recombinant barcode read abundance (log10).
test: recombinant barcode read abundance after kanamycin selection (control-corrected) (log10(CPM+1)); higher = more efficient recombination; sequences stand for … in AGTGCAGAGAAAATCGGCCAGTTTTCTCTGCCTGCAGTCCGCATGCCGT…AGATTTATGCAGCGGACTGCCTTTCTCCCAAAGTGATAAACCGGACAGTATCATGGACCGGTTTTCCCGGTAATCCGTATTTGCAAGGTTGGTTTCACT; site = the 11-nt target
REPORTED METRIC: recombinant barcode read abundance (log10)

INSERT INTO results (macromolecule_sequence, reported_value) VALUES
  ('GCCGGGGCTTGGGTTCTAACCTGTTGCCG (site GCCAGGGCTCG)', 0.262),
  ('GCGGACTCTTGGGTTCTAACCTGTTGCCA (site GCGTACTCTAG)', 0.0401),
  ('AATTTCTCTTGGGTTCTAACCTGTTGCCT (site TATTTCTCTAG)', 0.0924),
  ('GATTGGACTTGGGTTCTAACCTGTTGCTT (site GATTGGACTAA)', 0.661),
  ('TCTTGGACTTGGGTTCTAACCTGTTGCTA (site TCTTGGACTCA)', 0.0354),
  ('TACCTTACTTGGGTTCTAACCTGTTGCAG (site TACCTTACTCT)', 0.897),
  ('TGGAACACTTGGGTTCTAACCTGTTGCCT (site TGGATCACTAG)', 0.119),
  ('CAAACCGCTTGGGTTCTAACCTGTTGCCT (site CTAACCGCTAG)', 0.117),
  ('CCAAGCGCTTGGGTTCTAACCTGTTGCCT (site CCAAGCTCTAG)', 0.209),
  ('TTGGGAGCTTGGGTTCTAACCTGTTGCCT (site TTGGCAGCTAG)', 0.11),
  ('TAGTTTACTTGGGTTCTAACCTGTTGCTA (site TAGTTTACTTA)', 0.0536),
  ('ACTCGACCTTGGGTTCTAACCTGTTGCCT (site ACTAGACCTAG)', 0.197),
  ('GGGGACCCTTGGGTTCTAACCTGTTGCGC (site GGGGACCCTTC)', 0.283),
  ('CCGAATCCTTGGGTTCTAACCTGTTGCCT (site CCGACTCCTAG)', 0.361),
  ('AGGAGAGCTTGGGTTCTAACCTGTTGCTT (site CTAGCGACTGT)', 0.0392),
  ('AGTACAACTTGGGTTCTAACCTGTTGCCT (site AGAACAACTAG)', 0.134),
  ('CGTCAGACTTGGGTTCTAACCTGTTGCCT (site CGTCAGACTAG)', 0.109),
  ('TACAGGACTTGGGTTCTAACCTGTTGCAG (site TAGAGGACTCT)', 0.274),
  ('GGGGCACCTTGGGTTCTAACCTGTTGCGT (site GGGGCACCTAC)', 3.72),
  ('GTCCTGTCTTGGGTTCTAACCTGTTGCCG (site GTCGTGTCTCG)', 0.397),
  ('GGCAGTCCTTGGGTTCTAACCTGTTGCTT (site GGCAGTCCTAG)', 0.252),
  ('CAAAAGGCTTGGGTTCTAACCTGTTGCAG (site CAAAAGGCTCT)', 1.7),
  ('CTCCATTCTTGGGTTCTAACCTGTTGCAT (site CTCAATTCTAT)', 0.217),
  ('CTAAGGTCTTGGGTTCTAACCTGTTGCGT (site CTAAGGTCTAT)', 1.9),
  ('TATCCGACTTGGGTTCTAACCTGTTGCCG (site TATCCGACTAG)', 0.224),
  ('CGAACGACTTGGGTTCTAACCTGTTGCCT (site CGAACGACTAA)', 0.157),
  ('GTTTATACTTGGGTTCTAACCTGTTGCCT (site GTCTATACTAG)', 0.091),
  ('TAGCACCCTTGGGTTCTAACCTGTTGCCA (site TAGCACCCTTG)', 0.965),
  ('TATTGGACTTGGGTTCTAACCTGTTGCAG (site TATTGGACTGT)', 0.0393),
  ('TCGGGGTCTTGGGTTCTAACCTGTTGCCT (site GCGGGGTCTAG)', 0.0776),
  ('AAGTCTCCTTGGGTTCTAACCTGTTGCCT (site AAGTCTCCTAG)', 0.64),
  ('GGAGGGACTTGGGTTCTAACCTGTTGCGT (site GGAGGGACTAC)', 2.97),
  ('CTATCGCCTTGGGTTCTAACCTGTTGCCT (site CTCTCGCCTAG)', 0.238),
  ('CTCTCGCCTTGGGTTCTAACCTGTTGCCT (site CTTTCGCCTAG)', 0.0266),
  ('CGTAAGCCTTGGGTTCTAACCTGTTGCAT (site CGCAAGCCTAT)', 0.265),
  ('ACGGGATCTTGGGTTCTAACCTGTTGCCT (site GCGGGATCTAG)', 0.129),
  ('TCACGTCCTTGGGTTCTAACCTGTTGCAG (site TCGCGTCCTCT)', 0.183),
  ('ACATGCACTTGGGTTCTAACCTGTTGCAT (site ACATGTACTAT)', 0.116),
  ('TGTGCACCTTGGGTTCTAACCTGTTGCAC (site TGTGCTCCTCT)', 0.0746),
  ('ATGGCGGCTTGGGTTCTAACCTGTTGCCT (site ATGGCGGCTAG)', 1.69),
  ('GTGGAAGCTTGGGTTCTAACCTGTTGCCT (site GCGGAAGCTAG)', 0.367),
  ('GCGGGTCCTTGGGTTCTAACCTGTTGCCT (site GCGGGTCCTAG)', 2.15);
